system: P388 leukemia ip, CD2F1 mice, survival T/C; experiment: NCI In Vivo Anticancer Drug Screen. Data for tumor model P388 Leukemia (intraperitoneal) in CD2F1 (CDF1) mice; details: endpoint: median survival time; dose: 100.0 mg/kg/injection; schedule: Q01DX005 (ip); vehicle: Klucel (hydroxypropylcellulose) (HPC); higher = longer survival
Inconclusive results and toxic doses are left out.
Below: a set of entries, each annotated with reported T/C.
recordedMetric: T/C

CN(C)CC/C(Br)=C1/c2ccccc2Sc2ccc(Cl)cc21: 98 % of control
Fc1ccc(N2C(c3ccccc3)=N[C@@H](N3CCOCC3)[C@@H]2N2CCOCC2)cc1: 100 % of control
c1cc[c]([Ge]([O][Ge]([c]2ccccc2)[c]2ccccc2)[c]2ccccc2)cc1.c1cc[c]([Ge]([O][Ge]([c]2ccccc2)[c]2ccccc2)[c]2ccccc2)cc1: 91 % of control
Cn1c2c(c(=O)c3ccccc31)CCC(C)(C)O2: 91 % of control
CC1C[N+]2(CNC(=O)C3=C(O)C4(O)C(=O)C5=C(O)c6c(O)cccc6C(C)(O)C5CC4C(N(C)C)C3=O)CC(C)O[B-]2(c2ccccc2)O1 (stereo not given): 110 % of control

----------
tested on: P388 leukemia ip, CD2F1 mice, survival T/C; assay: NCI In Vivo Anticancer Drug Screen. Data for tumor model P388 Leukemia (intraperitoneal) in CD2F1 (CDF1) mice; details: endpoint: median survival time; dose: 200.0 mg/kg/injection; schedule: Q04DX003 (ip); vehicle: saline
Toxic doses and inconclusive results are not listed. How the source made its calls: active means survival T/C of 150% or more; inactive means T/C below 125% in these data.
Classes used: active, inactive

[CH3][Ge]([Cl])([c]1ccccc1)[c]1cccc2ccccc12 (stereo not drawn): inactive
CCOC(=O)NC: inactive
CC(=O)NCSCC(N)C(=O)O (stereo not drawn): inactive
OCC(O)COCCCCCCCCCCCCCC1C=CCC1 (stereo not drawn): inactive
CCOC(=O)NC(NC(=O)OCC)c1cccc([N+](=O)[O-])c1: inactive
CN1C(Cc2ccccc2)N(S(=O)(=O)C2C=CC=CC=C2)CC1(C)C (stereo not drawn): inactive
O=C(CCS(=O)(=O)CCC(=O)C(c1ccccc1)c1ccccc1)C(c1ccccc1)c1ccccc1: inactive
C[N+]12CCN(CC1)CC2: inactive
c1cc2cc(-c3ccc4cc(C5=NCCN5)[nH]c4c3)[nH]c2cc1C1=NCCN1: active
[CH3][Ge]([c]1ccccc1)[c]1cccc2ccccc12.[CH3][Sn]([CH3])[c]1ccccc1: inactive
NC(=O)C(Cl)Cn1ccnc1 (stereo not drawn): inactive
COC(=O)CC(OC)OC: inactive
CCOC(=S)SC1CC2(C)C(CCC3C2CCC2(C)C(OC(C)=O)CCC32)CC1=O (stereo not drawn): inactive

----------
system: P388 leukemia ip, CD2F1 mice, survival T/C; experiment: NCI In Vivo Anticancer Drug Screen. Data for tumor model P388 Leukemia (intraperitoneal) in CD2F1 (CDF1) mice; conditions: endpoint: median survival time; dose: 400.0 mg/kg/injection; schedule: Q04DX003 (ip); vehicle: Klucel (hydroxypropylcellulose) (HPC); higher = longer survival
Inconclusive results and toxic doses are left out.
recordedMetric: T/C

O=[N+]([O-])c1ccccc1C=Nc1ccc2nc(SCc3ccccc3)sc2c1: 89 % of control
O=S(=O)(Cc1ccccc1)Oc1ccccc1: 94 % of control
CCOC(=O)NC1CCc2ccccc2C1 (stereo not given): 95 % of control
CN(CCCc1nc2ccccc2[nH]1)N=O: 100 % of control
CC(C)(C)P(O)(=S)c1ccccc1 (stereo not given) (tested in a mixture with another compound): 100 % of control
CCOC(=O)C1=C(NC(=O)Nc2ccccc2)N(C(=O)Nc2ccccc2)CCC1: 102 % of control
CC12CCC3C(CCC4CC5OC(=O)CC5CC43C)C1CCC2=O (stereo not given): 101 % of control
COc1cc(OC)c(C(=O)O)cc1Cl: 100 % of control
COc1ccc(C2=C(Cl)C(=O)N(c3ccccn3)C(=O)C2(Cl)Cl)cc1: 100 % of control
CC(=O)CC(C)(C)C(C#N)c1ccccc1 (stereo not given): 98 % of control
